Here's a batch of molecules along with measured pIC50 for MNK2a (Homo sapiens (Human), UniProt Q9HBH9).
One number for each entry, as −log10 of the molar value.

molecule	pIC50
Cc1cc(N=S2(=O)CCCC2)cc2ncnc(Nc3ccc(F)cc3O[C@H](C)C(=O)NCC(C)O)c12 (stereo partly drawn)	8.70
C[C@H](NC(=O)[C@@H](C)Oc1cc(F)ccc1Nc1ncnc2cc(N=S3(=O)CCC3)cc(C(F)F)c12)C(F)(F)F	8.70
Cc1cc(N=S(C)(C)=O)cc2ncnc(Nc3ccc(F)cc3O[C@H](C)CNC(=O)C(F)(F)F)c12	7.55
Cc1cc(N=S(C)(C)=O)cc2ncnc(Nc3ccc(F)cc3O[C@H](C)C(=O)NCC(F)F)c12	9.00

# batch: return pIC50 for each of the 8 molecules below
1. Cc1cc(N=S(C)(C)=O)cc2ncnc(Nc3ccc(F)cc3O[C@@H](C)CN)c12
2. C[C@@H](Oc1cc(F)ccc1Nc1ncnc2cc(N=S3(=O)CC(C)(C)C3)cc(F)c12)C(=O)NCC#N
3. C[C@@H](Oc1cc(F)ccc1Nc1ncnc2cc(N=S3(=O)CCC3)cc(F)c12)C(=O)NCCF
4. Cc1cc(N=S(C)(C)=O)cc2ncnc(Nc3ccc(F)cc3O[C@H](C)C(=O)N[C@@H](C)C(F)(F)F)c12
5. COCC(C)NC(=O)[C@@H](C)Oc1cc(F)ccc1Nc1ncnc2cc(N=S3(=O)CCCC3)cc(C)c12 (stereo partly drawn)
6. Cc1cc(N=S(C)(C)=O)cc2ncnc(Nc3ccc(F)cc3OCC3CCOCC3)c12
7. Cc1cc(N=S2(=O)CCC2)cc2ncnc(Nc3ccc(F)cc3O[C@H](C)C(=O)NC(C(F)(F)F)C(F)(F)F)c12
8. Cc1cc(N=S(C)(C)=O)cc2ncnc(Nc3cccnc3OC(C)C)c12

Result ::
1. 7.80
2. 9.00
3. 8.52
4. 8.70
5. 8.70
6. 8.00
7. 9.00
8. 8.70

# batch: return pIC50 for each of the 8 molecules below
1. Cc1cc([C@@H](C)Oc2ncccc2Nc2ncnc3cc(N=S(C)(C)=O)cc(C)c23)on1
2. CC(C)Oc1ncccc1Nc1ncnc2cc(N=S(C)(C)=O)cc(F)c12
3. Cc1cc(N=S2(=O)CC[C@@H](N)C2)cc2ncnc(Nc3ccc(F)cc3O[C@H](C)C(=O)NCC(F)(F)F)c12 (stereo partly drawn)
4. COc1cc(N=S2(=O)CCC2)cc2ncnc(Nc3ccc(Cl)cc3O[C@H](C)C(=O)NCC(F)(F)F)c12
5. Cc1cc(N=S(C)(C)=O)cc2ncnc(Nc3ccc(F)cc3O[C@H](C)C(=O)NC(C(F)(F)F)C(F)(F)F)c12
6. C[C@@H](Oc1cc(F)ccc1Nc1ncnc2cc(N=S(C)(=O)C(C)(C)C)cc(F)c12)C(=O)NCC(F)(F)F (stereo partly drawn)
7. C[C@@H](Oc1cc(F)ccc1Nc1ncnc2cc(N=S(C)(C)=O)cc(Cl)c12)C(=O)NCC#N
8. Cc1cc([C@@H](C)Oc2ncccc2Nc2ncnc3cc(N=S4(=O)CCCC4)cc(C)c23)on1

Result ::
9.00
6.72
8.52
8.70
9.00
7.74
8.70
9.00

Query :: Looking for the measured pIC50 of Cc1cc(N=S2(=O)CCCC2)cc2ncnc(Nc3ccc(F)cc3OC(C)C(C)(C)C#N)c12 (stereo not drawn) , can you help?
Result :: 8.52

---

Task for the reader: assign each of the following compounds its reported inhibition at 1 µM.
- assay.system: MNK1 (Homo sapiens (Human), UniProt Q9BUB5)
- Sequence (Q9BUB5 other isoform, or with tags, fused parts or gaps): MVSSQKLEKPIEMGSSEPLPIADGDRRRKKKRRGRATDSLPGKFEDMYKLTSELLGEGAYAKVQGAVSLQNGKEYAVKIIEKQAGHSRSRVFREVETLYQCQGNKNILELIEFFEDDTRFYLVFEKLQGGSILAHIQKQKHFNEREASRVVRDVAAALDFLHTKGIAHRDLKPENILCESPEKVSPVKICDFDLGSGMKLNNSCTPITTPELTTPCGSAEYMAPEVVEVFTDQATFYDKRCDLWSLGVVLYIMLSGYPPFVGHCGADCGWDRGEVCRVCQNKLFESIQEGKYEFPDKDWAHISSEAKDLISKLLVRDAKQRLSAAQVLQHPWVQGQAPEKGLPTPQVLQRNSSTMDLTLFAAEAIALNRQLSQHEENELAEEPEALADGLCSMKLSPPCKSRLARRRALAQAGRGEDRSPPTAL
- experiment.notes: MNK1 in vitro kinase assay (Assay 3), Z'-LYTE
- Assay type: biochemical
- assay.context: compound concentration of 1 μM, read-out: MNK1 % INH
One number for each entry, in %.

Consider the worked cases shown below.
compound	value.unit	inhibition at 1 µM
COCC(C)Oc1cc(F)ccc1Nc1ncnc2cc(N=S(C)(C)=O)cc(C)c12 (stereo not shown) [Example 3.050]	%	87
CCOC(=O)[C@@H](C)Oc1cc(F)ccc1Nc1ncnc2cc(N=S3(=O)CCCC3)cc(C)c12 [Example 3.012]	%	100
Cc1cc(N=S(C)(C)=O)cc2ncnc(Nc3ccc(F)cc3O[C@H](C)C(=O)NC(C)C)c12 [Example 4.060]	%	99
Cc1cc(N=S(C)(C)=O)cc2ncnc(Nc3ccc(F)cc3OC(C)C(C)(C)O)c12 (stereo not shown) [Example 2.003]	%	76
Cc1cc(N=S(C)(C)=O)cc2ncnc(Nc3ccc(F)cc3OC(C)CF)c12 (stereo not shown) [Example 1.015]	%	100
Cc1cc(N=S2(=O)CCCC2)cc2ncnc(Nc3ccc(F)cc3O[C@H](C)C(=O)N3CCC(O)C3)c12 (stereo partly shown) [Example 4.010]	%	89
Cc1cc(N=S(C)(C)=O)cc2ncnc(Nc3ccc(F)cc3O[C@H](C)CN)c12 [Example 3.018]	%	92
CC(CF)Oc1cc(F)ccc1Nc1ncnc2cc(N=S(C)(C)=O)cc(F)c12 (stereo not shown) [Example 1.006]	%	96

# batch: return inhibition at 1 µM for each of the 8 compounds below
1. Cc1cc(N=S2(=O)CCCC2)cc2ncnc(Nc3ccc(F)cc3O[C@H](C)C(=O)N[C@H]3CCOC3)c12 [Example 4.057]
2. Cc1cc(N=S(C)(C)=O)cc2ncnc(Nc3cccnc3OC(C)C)c12 [Example 2.017]
3. Cc1cc(N=S2(=O)CCCC2)cc2ncnc(Nc3ccc(F)cc3O[C@H](C)C(=O)N(C)C)c12 [Example 4.051]
4. CCOC(Oc1cc(F)ccc1Nc1ncnc2cc(N=S(C)(C)=O)cc(C)c12)C(F)(F)F (stereo not shown) [Example 1.023]
5. Cc1cc(N=S(C)(C)=O)cc2ncnc(Nc3ccc(F)cc3O[C@@H](C)CNS(C)(=O)=O)c12 [Example 5.001]
6. COCCN(C)C(=O)[C@@H](C)Oc1cc(F)ccc1Nc1ncnc2cc(N=S(C)(C)=O)cc(C)c12 [Example 4.055]
7. Cc1cc(N=S(C)(C)=O)cc2ncnc(Nc3ccc(F)cc3OC[C@H]3CNC(=O)O3)c12 [Example 3.003]
8. CC(=O)NC[C@H](C)Oc1cc(F)ccc1Nc1ncnc2cc(N=S(C)(C)=O)cc(C)c12 [Example 5.002]

Result ::
102
90
82
65
97
62
73
88

---

- assay.system: MNK1 (Homo sapiens (Human), UniProt Q9BUB5)
- experiment.notes: MNK1 in vitro kinase assay (Assay 3), Z'-LYTE
- Format: biochemical
- assay.context: compound concentration of 1 μM, read-out: MNK1 % INH
measure.name: inhibition at 1 µM (%)
One number for each entry, in %.

Consider the worked cases shown below.
molecule	value.unit	inhibition at 1 µM
Cc1cc(N=S(C)(C)=O)cc2ncnc(Nc3ccc(F)cc3O[C@H](C)C(=O)N(C)Cc3ccccc3)c12	%	56
Cc1cc(N=S2(=O)CCCC2)cc2ncnc(Nc3ccc(F)cc3O[C@H](C)C(=O)N3CCC(=O)CC3)c12	%	95
Cc1cc(N=S2(=O)CCCC2)cc2ncnc(Nc3ccc(F)cc3O[C@H](C)C(=O)NCC3CCCO3)c12 (stereo partly shown)	%	97

Okay, now this molecule:
Query :: Looking for the measured inhibition at 1 µM of `Cc1cc(N=S(C)(C)=O)cc2ncnc(Nc3ccc(F)cc3O[C@H](C)C(=O)NC3CCOCC3)c12` , can you help?
Result :: 92

---

- assay.system: MNK1 (Homo sapiens (Human))
- experiment.notes: MNK1 in vitro kinase assay (Assay 3), Z'-LYTE
- Type: biochemical
- assay.context: compound concentration of 1 μM, read-out: MNK1 % INH
Classify as follows. Reported inhibition at 1 µM greater than or equal to 90%: y. Reported inhibition at 1 µM below: n.

These solved cases illustrate the format of a correct answer.
molecule	assay.system	category.label
Cc1cc(N=S(C)(C)=O)cc2ncnc(Nc3ccc(F)cc3OCC3CCNC(=O)C3)c12 (stereo not shown)	MNK1 (Homo sapiens (Human))	n
Cc1cc(N=S2(=O)CCCC2)cc2ncnc(Nc3ccc(F)cc3O[C@H](C)C(=O)N3CCCCC3)c12	MNK1 (Homo sapiens (Human))	y
C#CCNC(=O)[C@@H](C)Oc1cc(F)ccc1Nc1ncnc2cc(N=S(C)(C)=O)cc(C)c12	MNK1 (Homo sapiens (Human))	y
C#CCNC(=O)[C@@H](C)Oc1cc(F)ccc1Nc1ncnc2cc(N=S3(=O)CCCC3)cc(C)c12	MNK1 (Homo sapiens (Human))	y
COCCNC(=O)[C@@H](C)Oc1cc(F)ccc1Nc1ncnc2cc(N=S(C)(C)=O)cc(C)c12	MNK1 (Homo sapiens (Human))	n

Query :: Answer whether inhibition at 1 µM of `COCCN(C)C(=O)[C@@H](C)Oc1cc(F)ccc1Nc1ncnc2cc(N=S3(=O)CCCC3)cc(C)c12` is greater than or equal to 90%.
Result :: n

---

- assay.system: MNK1 (Homo sapiens (Human), UniProt Q9BUB5)
- experiment.notes: MNK1 in vitro kinase assay (Assay 3), Z'-LYTE
- Format: biochemical
- assay.context: compound concentration of 1 μM, read-out: MNK1 % INH
measure.name: inhibition at 1 µM (%)
One number for each entry, in %.

Consider the worked cases shown below.
molecule	assay.system	measure.name	observed.measurement
Cc1cc(N=S2(=O)CCCC2)cc2ncnc(Nc3ccc(F)cc3O[C@H](C)C(=O)NCCO)c12	MNK1 (Homo sapiens (Human), UniProt Q9BUB5)	inhibition at 1 µM	98
Cc1cc(COc2cc(F)ccc2Nc2ncnc3cc(N=S(C)(C)=O)cc(C)c23)no1	MNK1 (Homo sapiens (Human), UniProt Q9BUB5)	inhibition at 1 µM	95
Cc1cc(N=S(C)(C)=O)cc2ncnc(Nc3ccc(F)cc3OCC3CCOC3)c12 (stereo not shown)	MNK1 (Homo sapiens (Human), UniProt Q9BUB5)	inhibition at 1 µM	88
Cc1cc(N=S(C)(C)=O)cc2ncnc(Nc3ccc(F)cc3O[C@H](C)C(=O)NC(C(F)(F)F)C(F)(F)F)c12	MNK1 (Homo sapiens (Human), UniProt Q9BUB5)	inhibition at 1 µM	58
Cc1cc(N=S(C)(C)=O)cc2ncnc(Nc3ccc(Cl)cc3O[C@H](C)C(=O)N[C@@H](C)C(F)(F)F)c12	MNK1 (Homo sapiens (Human), UniProt Q9BUB5)	inhibition at 1 µM	99
Cc1cc(N=S(C)(C)=O)cc2ncnc(Nc3ccc(F)cc3OCC3(C(F)(F)F)CC3)c12	MNK1 (Homo sapiens (Human), UniProt Q9BUB5)	inhibition at 1 µM	98
Cc1cc(N=S(C)(C)=O)cc2ncnc(Nc3ccc(F)cc3OC[C@@H]3CCC(=O)N3)c12	MNK1 (Homo sapiens (Human), UniProt Q9BUB5)	inhibition at 1 µM	82
O=S1(=Nc2cc(C(F)(F)F)c3c(Nc4ccc(F)cc4OC(CF)CF)ncnc3c2)CCNCC1	MNK1 (Homo sapiens (Human), UniProt Q9BUB5)	inhibition at 1 µM	64

# batch: return inhibition at 1 µM for each of the 6 molecules below
1. Cc1cc(N=S(C)(C)=O)cc2ncnc(Nc3ccc(F)cc3OCC3CC3(F)F)c12 (stereo not shown)
2. Cc1cc(N=S(C)(C)=O)cc2ncnc(Nc3ccc(F)cc3O[C@H](C)C(=O)N(C)CC(C)C)c12
3. CCC(C)NC(=O)[C@@H](C)Oc1cc(F)ccc1Nc1ncnc2cc(N=S3(=O)CCCC3)cc(C)c12 (stereo partly shown)
4. Cc1cc(N=S(C)(C)=O)cc2ncnc(Nc3ccc(F)cc3O[C@H](C)C(=O)NCC3CCCO3)c12 (stereo partly shown)
5. Cc1cc(N=S2(=O)CCC2)cc2ncnc(Nc3ccc(F)cc3O[C@H](C)C(=O)N[C@@H](C)C(F)(F)F)c12
6. Cc1cc(N=S(C)(C)=O)cc2ncnc(Nc3ccc(F)cc3O[C@H](C)C(=O)N3CCN(C)CC3)c12

Result ::
1. 89
2. 88
3. 100
4. 86
5. 100
6. 74
